# SYSTEM: Mu-type opioid receptor (Rattus norvegicus)
# Sequence (P33535 whole entry): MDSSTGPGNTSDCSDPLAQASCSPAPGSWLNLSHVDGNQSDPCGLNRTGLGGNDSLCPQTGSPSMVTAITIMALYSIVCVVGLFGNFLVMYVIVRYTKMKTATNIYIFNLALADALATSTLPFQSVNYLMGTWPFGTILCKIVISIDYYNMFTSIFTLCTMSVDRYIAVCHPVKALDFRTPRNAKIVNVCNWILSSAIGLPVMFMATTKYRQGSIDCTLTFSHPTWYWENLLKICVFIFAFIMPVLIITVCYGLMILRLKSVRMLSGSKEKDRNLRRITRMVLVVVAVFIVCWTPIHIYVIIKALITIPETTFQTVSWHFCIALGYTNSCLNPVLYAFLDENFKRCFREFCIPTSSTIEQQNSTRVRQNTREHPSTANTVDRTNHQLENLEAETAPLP
# TEST DESCRIPTION: Displacement of [3H]DAMGO from rat mu opioid receptor expressed in HN9.10 cells
Positions of bridges follow the written chain, without caps; N, C: chain ends. Non-standard residues stand in square brackets, D forms with d. Residues, ends and D or L forms follow the SMILES beside them. *: point of attachment. NH(3,5-(CF3)2-benzyl) = FC(F)(F)c1cc(CN*)cc(C(F)(F)F)c1; Nle = CCCC[C@H](N)C(=O)O
READOUT: IC50 (nM)
Provide only the numeric value, understood in nM.

>  <COMPOUND>
CC(C)C[C@H](NC(=O)[C@@H]1CCCN1C(=O)[C@H]1CSSC[C@@H](NC(=O)[C@@H](N)Cc2ccc(O)cc2)C(=O)NCC(=O)N[C@@H](Cc2ccccc2)C(=O)N1)C(=O)N[C@@H](Cc1c[nH]c2ccccc12)C(=O)NCc1cc(C(F)(F)F)cc(C(F)(F)F)c1

>  <IC50 (nM)>
115

$$$$
>  <COMPOUND>
CCCC[C@@H]1NC(=O)[C@H](Cc2ccccc2)NC(=O)CNC(=O)[C@H](NC(=O)[C@@H](N)Cc2ccc(O)cc2)CSSC[C@@H](C(=O)N[C@@H](Cc2c[nH]c3ccccc23)C(=O)NCc2cc(C(F)(F)F)cc(C(F)(F)F)c2)NC(=O)[C@@H]2CCCN2C1=O (H-Y[dC]GF[Nle]PCW-{NH(3,5-(CF3)2-benzyl)}; disulfide 2-7)

>  <IC50 (nM)>
166

$$$$
>  <COMPOUND>
CC(C)C[C@H](NC(=O)[C@@H]1CCCN1C(=O)[C@@H]1CSSC[C@@H](NC(=O)[C@@H](N)Cc2ccc(O)cc2)C(=O)NCC(=O)N[C@@H](Cc2ccccc2)C(=O)N1)C(=O)N[C@@H](Cc1c[nH]c2ccccc12)C(=O)NCc1cc(C(F)(F)F)cc(C(F)(F)F)c1

>  <IC50 (nM)>
427

$$$$

Let us examine a further case.
Documented IC50 of CCCC[C@@H]1NC(=O)[C@H](Cc2ccccc2)NC(=O)CNC(=O)[C@H](NC(=O)[C@@H](N)Cc2ccc(O)cc2)CSSC[C@H](C(=O)N[C@@H](Cc2c[nH]c3ccccc23)C(=O)NCc2cc(C(F)(F)F)cc(C(F)(F)F)c2)NC(=O)[C@@H]2CCCN2C1=O (H-Y[dC]GF[Nle]P[dC]W-{NH(3,5-(CF3)2-benzyl)}; disulfide 2-7) : 316

src = ChEMBL document CHEMBL1152616
